Where do the numbers come from? From patent US11834450B2.

Assay read-out IC50; system under study: BCL-XL (Homo sapiens).
Sequence (Q07817 whole entry): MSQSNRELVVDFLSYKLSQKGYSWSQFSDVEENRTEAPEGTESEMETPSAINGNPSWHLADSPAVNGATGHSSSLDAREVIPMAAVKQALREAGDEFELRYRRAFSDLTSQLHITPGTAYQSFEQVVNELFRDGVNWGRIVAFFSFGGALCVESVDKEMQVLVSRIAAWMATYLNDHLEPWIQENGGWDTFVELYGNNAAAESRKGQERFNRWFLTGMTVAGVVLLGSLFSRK

Sample records with IC50:
O=C(NS(=O)(=O)c1ccc(NCC2CCOCC2)c([N+](=O)[O-])c1)c1ccc(N2CCN(CC(c3ccccc3)c3ccccc3)CC2)cc1Oc1cnc2[nH]ccc2c1 [Compound 4]: > 4 µM
O=C(NS(=O)(=O)c1ccc(NCC2CCOCC2)c([N+](=O)[O-])c1)c1ccc(N2CCN(C[C@@H]3Cc4ccc(F)cc4CN3C(=O)C3CC3)CC2)cc1Oc1cnc2[nH]ccc2c1 [Compound 50]: > 4 µM

Would you kindly look at the next entry?
Looking up O=C(NS(=O)(=O)c1ccc(NCC2CCOCC2)c([N+](=O)[O-])c1)c1ccc(N2CCC(CN3CCCCC3c3ccc(Cl)cc3)CC2)cc1Oc1cncc(CO)c1 (stereo not drawn) [Compound 64] , I found its IC50 recorded as > 4 µM

====

Molecular target: BCL-2 (Homo sapiens)
Sequence (P10415 whole entry): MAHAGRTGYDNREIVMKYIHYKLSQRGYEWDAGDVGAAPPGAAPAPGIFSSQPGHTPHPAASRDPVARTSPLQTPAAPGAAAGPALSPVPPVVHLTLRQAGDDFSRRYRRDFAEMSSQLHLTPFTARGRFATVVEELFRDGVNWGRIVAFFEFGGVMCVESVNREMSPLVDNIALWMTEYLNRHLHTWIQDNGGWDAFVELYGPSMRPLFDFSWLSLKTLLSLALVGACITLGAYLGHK
Kindly supply the reported IC50 values for the records listed here.

Reference set, count: 2
O=C(NS(=O)(=O)c1ccc(NCC2CCOCC2)c([N+](=O)[O-])c1)c1ccc(N2CCC(CN3C(=O)C4(CCCC4)C3c3cncc(Cl)c3)CC2)cc1Oc1cnc2[nH]ccc2c1 (centres unmarked): > 50 nM
O=C(NS(=O)(=O)c1ccc(NCC2CCOCC2)c([N+](=O)[O-])c1)c1ccc(N2CCN(CC3Cc4ccccc4CN3C(=O)c3cccs3)CC2)cc1Oc1cnc2[nH]ccc2c1 (centres unmarked): > 50 nM

State recorded IC50 for all listed molecules.
1. O=C(NS(=O)(=O)c1ccc(NCC2CCOCC2)c([N+](=O)[O-])c1)c1ccc(N2CCC(CN3C(=O)C4(CCNCC4)C3c3ccc(Cl)cc3)CC2)cc1Oc1cnc2[nH]ccc2c1 (centres unmarked)
2. CC1=CC[C@@H](CN2CCN(c3ccc(C(=O)NS(=O)(=O)c4ccc(NCC5CCOCC5)c([N+](=O)[O-])c4)c(Oc4cnc5[nH]ccc5c4)c3)CC2)[C@@H](c2ccc(Cl)cc2)C1
3. CC(C)C(=O)N1Cc2cc(F)ccc2C[C@H]1CN1CCN(c2ccc(C(=O)NS(=O)(=O)c3ccc(NCC4CCOCC4)c([N+](=O)[O-])c3)c(Oc3cnc4[nH]ccc4c3)c2)CC1

Result:
1. 10 to 50 nM
2. 10 to 50 nM
3. > 50 nM

====

Can you tell me pIC50 for the items I'm about to list?
Molecular target: BCL-2 (Homo sapiens)
pIC50: −log10 of the molar value.

Example entries and their recorded answers appear below.
O=C(NS(=O)(=O)c1ccc(NCC2CCOCC2)c([N+](=O)[O-])c1)c1ccc(N2CCN(C[C@H]3Cc4ccccc4CN3C(=O)c3cccs3)CC2)cc1Oc1cnc2[nH]ccc2c1 [Compound 34]: 7.30 to 8.00
O=C(NS(=O)(=O)c1ccc(NCC2CCOCC2)c([N+](=O)[O-])c1)c1ccc(N2CCC(CN3C(=O)C4(CCCC4)C3c3ccccc3)CC2)cc1Oc1cnc2[nH]ccc2c1 (stereo not drawn) [Compound 2]: < 7.30
O=C(NS(=O)(=O)c1ccc(NCC2CCOCC2)c([N+](=O)[O-])c1)c1ccc(N2CCN(C[C@@H]3Cc4ccccc4CN3C(=O)c3ccsc3)CC2)cc1Oc1cnc2[nH]ccc2c1 [Compound 36]: < 7.30
CC(C)C(=O)N1Cc2ccccc2C[C@@H]1CN1CCN(c2ccc(C(=O)NS(=O)(=O)c3ccc(NCC4CCOCC4)c([N+](=O)[O-])c3)c(Oc3cnc4[nH]ccc4c3)c2)CC1 [Compound 37]: < 7.30
CC1=CC[C@@H]2C[C@H]1[C@H](c1ccc(Cl)cc1)N(CC1CCN(c3ccc(C(=O)NS(=O)(=O)c4ccc(NCC5CCOCC5)c([N+](=O)[O-])c4)c(Oc4cnc5[nH]ccc5c4)c3)CC1)C2 [Compound 55]: < 7.30

Report pIC50 for every entry below.
1. O=C(NS(=O)(=O)c1ccc(NCC2CCOCC2)c([N+](=O)[O-])c1)c1ccc(N2CCN(CC3CCC=CC3c3ccc(Cl)cc3)CC2)cc1Oc1cnc2[nH]ccc2c1 (stereo not drawn) [Compound 67]
2. O=C(NS(=O)(=O)c1ccc(NCCCN2CCOCC2)c([N+](=O)[O-])c1)c1ccc(N2CCC(CN3CCCCC3c3ccc(Cl)cc3)CC2)cc1Oc1cnc2[nH]ccc2c1 (stereo not drawn) [Compound 73]

Result:
1. 7.30 to 8.00
2. 7.30 to 8.00

I need pIC50 for every entry listed below, if you could help.
1. O=C(NS(=O)(=O)c1ccc(NCC2CCOCC2)c([N+](=O)[O-])c1)c1ccc(N2CCN(C[C@H]3Cc4ccccc4CN3C(=O)C3CC3)CC2)cc1Oc1cnc2[nH]ccc2c1 [Compound 33]
2. O=C(NS(=O)(=O)c1ccc(NCC2CCOCC2)c([N+](=O)[O-])c1)c1ccc(N2CCN(CC34CC(O)CCC3(c3ccc(Cl)cc3)C4)CC2)cc1Oc1cnc2[nH]ccc2c1 (stereo not drawn) [Compound 80]

Result:
1. 7.30 to 8.00
2. < 7.30
